Exercise: for every item that follows, state its recorded protein stability index.
- measurement description: protein stability index of a GFP-peptide fusion (GPS, HEK-293T) (PSI 1-6); higher = more stable;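 also: 24-mer peptide tiles fused after GFP, lentivirally expressed, FACS-sorted into six equal bins by GFP/DsRed ratio, decoded by Illumina sequencing, PSI is the read-weighted mean bin number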
- condition details: treatment: MLN4924 1 uM, 8 h; c terminus: a fixed tail appended
# print the numeric value only

[in] Let me know recorded protein stability index for DETFLATSFLQHPWDESGSGCLPP [FOXJ1] , thanks.
[out] 4.11

[in] Let me know recorded protein stability index for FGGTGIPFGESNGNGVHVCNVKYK [KLHDC10] , thanks.
[out] 3.06

[in] Let me know recorded protein stability index for ALQRLDLRNNQISHKGAEELALAL [LRRC45] , thanks.
[out] 3.05

###

- measurement description: protein stability index of a GFP-peptide fusion (GPS, HEK-293T) (PSI 1-6); higher = more stable
- condition details: treatment: DMSO; c terminus: a fixed tail appended
Exercise: for every item that follows, state its recorded protein stability index.
# print the numeric value only

[in] Let me know recorded protein stability index for LKPSWFDFGFAILGFAYAKEDKIM [MIA2] , thanks.
[out] 3.06

[in] Let me know recorded protein stability index for SGQRLGGYRTSAVASGLQFDVETR [WDFY2] , thanks.
[out] 3.82

[in] Let me know recorded protein stability index for PVPEQSALCQGLYFHINQTLREAH [FAM104A] , thanks.
[out] 2.46

[in] Let me know recorded protein stability index for PEKQKRKPGLRRSPIKKVRKSLAL [MYBL2] , thanks.
[out] 3.97

[in] Let me know recorded protein stability index for VRLQSQRPSMASELMPSSRLWSLS [SLC25A39] , thanks.
[out] 2.64

[in] Let me know recorded protein stability index for SRVTDAAFNFLLVWYYCTLTIRES [TMEM120A] , thanks.
[out] 3

[in] Let me know recorded protein stability index for QNLVYYRFHRARWGLEEEDFQPRE [P3H4] , thanks.
[out] 2.38

[in] Let me know recorded protein stability index for QEAAQLDMLLEKLPQVAEEISGPL [FLOT1] , thanks.
[out] 4.81

[in] Let me know recorded protein stability index for PGSLGPWKITIYDQENFQGKRMEF [CRYBA1] , thanks.
[out] 2.25

[in] Let me know recorded protein stability index for ETFRQQFRQFGYQDSPGPHEALSR [ZNF396] , thanks.
[out] 3.34

[in] Let me know recorded protein stability index for RLHLAFKRQVPTEQAQAYAERLGV [RAB40B] , thanks.
[out] 3.13

[in] Let me know recorded protein stability index for LHQTIYNQACKLLSDDYEQVRSAA [INTS4] , thanks.
[out] 2.96

[in] Let me know recorded protein stability index for VLYPVPLESYEDIHGTLHLERLAY [PRAME] , thanks.
[out] 2.31

[in] Let me know recorded protein stability index for AEITQIQSHISDMSVILSMDNNRN [KRT71] , thanks.
[out] 3.73

[in] Let me know recorded protein stability index for VLVEKYGWPHEDAAQFTDFLIPML [SRPK2] , thanks.
[out] 2.38

[in] Let me know recorded protein stability index for KSSIYESDFQIEPGFYATYESTLF [MIA2] , thanks.
[out] 2.33

[in] Let me know recorded protein stability index for IYRRYRQFHALQSKLEERFGPDSK [NCF4] , thanks.
[out] 2.28

[in] Let me know recorded protein stability index for VSLHDRIYVIGGYDGRSRLSSVEC [KLHL12] , thanks.
[out] 1.96

[in] Let me know recorded protein stability index for RIRSQIGNTESELKKLAEENPDLQ [GDAP1] , thanks.
[out] 5.42

[in] Let me know recorded protein stability index for KIMEAESQKATRECEKSALTPGFS [FAN1] , thanks.
[out] 4.86

[in] Let me know recorded protein stability index for LLRQLGRDAGATPSAAGAPASAPG [ANKRD9] , thanks.
[out] 4.12

[in] Let me know recorded protein stability index for LLGEIDLEKESDTPLQQVSIEEIL [LSM1] , thanks.
[out] 4.97

[in] Let me know recorded protein stability index for KNALEKYGPLKPLPQTPHLEEDLK [MYBL2] , thanks.
[out] 5.16

[in] Let me know recorded protein stability index for LFTDRMATRSTTQSNRTSRLIGKK [WEE1] , thanks.
[out] 4.25

[in] Let me know recorded protein stability index for RGMATKLLARPGTGEHREFKLDKK [FBF1] , thanks.
[out] 4.47

[in] Let me know recorded protein stability index for EEEEEEEEAEAGEEAVPEEEGPTV [CHGA] , thanks.
[out] 5.34

[in] Let me know recorded protein stability index for PDDVDYATNPHVKPPYSYATLICM [FOXJ1] , thanks.
[out] 2.22

[in] Let me know recorded protein stability index for RYWRSLRVMKVEDREGPSSSKLVT [HDAC6] , thanks.
[out] 2.79

[in] Let me know recorded protein stability index for FDHPIPRVFQNRFSTQYRCFSVSM [UFD1] , thanks.
[out] 2.89

[in] Let me know recorded protein stability index for DSGVGKSNLLSRFTRNEFNLESKS [RAB11A] , thanks.
[out] 4.03

[in] Let me know recorded protein stability index for DWVSDWSSRPENIPPKEFHFRHPK [BNIP3L] , thanks.
[out] 3.79

[in] Let me know recorded protein stability index for IVVGRLKVALEPQLWELGKVLRKA [LPCAT4] , thanks.
[out] 2.31

[in] Let me know recorded protein stability index for MRSPQNLHSQEDDDSSSESGSGNG [NOL4L] , thanks.
[out] 5.64

[in] Let me know recorded protein stability index for AIQLLSRMEYVHSKNLIYRDVKPE [CSNK1G1] , thanks.
[out] 2.28

[in] Let me know recorded protein stability index for ILGPAYFVTYVFFVFFVLLNMFLA [PKD2L1] , thanks.
[out] 2.88

[in] Let me know recorded protein stability index for ERFLELAPDFVGDILWEHLEQMIK [ETS2] , thanks.
[out] 2.36

[in] Let me know recorded protein stability index for LSTNDKTIKLWKITERDKRPEGYN [PPP2R2C] , thanks.
[out] 3.6

[in] Let me know recorded protein stability index for VFSQMIHLNETVKAPDIECVLRCS [FEM1B] , thanks.
[out] 2.13

[in] Let me know recorded protein stability index for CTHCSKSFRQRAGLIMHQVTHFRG [ZNF449] , thanks.
[out] 2.46

[in] Let me know recorded protein stability index for KKKKDKEKEKEKHKVKAEEEKKAK [BRD3] , thanks.
[out] 5.2
